Origin of measurements: patent US9073855B2

Biological target: GST-Bcl-XL (Homo sapiens)
Sequence (Q07817 whole entry): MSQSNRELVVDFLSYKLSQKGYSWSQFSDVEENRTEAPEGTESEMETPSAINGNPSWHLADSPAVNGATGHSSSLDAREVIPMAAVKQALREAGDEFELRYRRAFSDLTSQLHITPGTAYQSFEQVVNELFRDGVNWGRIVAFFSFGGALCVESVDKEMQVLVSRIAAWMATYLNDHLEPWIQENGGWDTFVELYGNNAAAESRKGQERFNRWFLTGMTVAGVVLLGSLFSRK
Experiment: TR-FRET binding assay, GST-Bcl-XL with F-Bak peptide probe
Conditions: TR-FRET Binding Affinity, GST-Bcl-XL, F-Bak peptide probe
Description: Tb-anti-GST antibody was purchased from Invitrogen (Catalog No. PV4216). […] The samples were then mixed on a shaker for 1 minute and incubated for an additional 3 hours at room temperature. […] Fluorescence was measured on the ENVISION plate reader (Perkin Elmer) using a 340/35 nm excitation filter and 520/525 (F-Bak peptide) and 495/510 nm (Tb-labeled […] antibody) emission filters. […]
ENDPOINT_LABEL: pKi
Kindly note that pKi refers to -log10 of the concentration in mol/L and answer with the value alone.

Some solved entries appear below for comparison.
>>> reported_measurement("CN(C)CCOc1cccc(-c2ccc(Cl)cc2)c1CN1CCN(c2ccc(C(=O)NS(=O)(=O)c3ccc(NCCCN4CCCC4)c([N+](=O)[O-])c3)c(Oc3ccc4[nH]ccc4c3)c2)CC1")
7.74
>>> reported_measurement("CC1(C)CCC(CN2CCN(c3ccc(C(=O)NS(=O)(=O)c4ccc(OCC5(F)CCOCC5)c([N+](=O)[O-])c4)c(Oc4ccc5[nH]ccc5c4)c3)CC2)=C(c2ccc(Cl)cc2)C1")
7.02
>>> reported_measurement("CC1(C)CCC(CN2CCN(c3ccc(C(=O)NS(=O)(=O)c4ccc(NCC(F)(F)F)c([N+](=O)[O-])c4)c(Oc4ccc5[nH]ccc5c4)c3)CC2)=C(c2ccc(Cl)cc2)C1")
6.35

pKi recorded for this compound, CN1CCN(CCCNc2ccc(S(=O)(=O)NC(=O)c3ccc(N4CCN(Cc5ccccc5-c5ccc(Cl)cc5)CC4)cc3Oc3ccccc3)cc2[N+](=O)[O-])CC1 , is 7.98

Consider COCCOCCN1CC[C@@H](Nc2ccc(S(=O)(=O)NC(=O)c3ccc(N4CCN(CC5=C(c6ccc(Cl)cc6)CC(C)(C)CC5)CC4)cc3Oc3cccc4[nH]cnc34)cc2[N+](=O)[O-])C1 . Its measured pKi is 8.85

----------
Ki overview
Biological target: GST-Bcl-2 (Homo sapiens)
Sequence (P10415 whole entry): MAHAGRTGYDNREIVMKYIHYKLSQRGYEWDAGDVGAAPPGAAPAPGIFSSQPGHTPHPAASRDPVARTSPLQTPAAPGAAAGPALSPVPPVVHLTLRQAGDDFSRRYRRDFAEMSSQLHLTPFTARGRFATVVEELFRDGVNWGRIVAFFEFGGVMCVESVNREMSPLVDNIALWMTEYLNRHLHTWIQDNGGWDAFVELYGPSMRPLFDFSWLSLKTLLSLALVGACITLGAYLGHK
Experiment: TR-FRET binding assay, GST-Bcl-2 with F-Bak peptide probe
Conditions: TR-FRET Binding Affinity, GST-Bcl-2, F-Bak peptide probe
Report the figure in nM without appending any unit label.

>>> reported_measurement("CN1CCN(Nc2ccc(S(=O)(=O)NC(=O)c3ccc(N4CCN(CC5=C(c6ccc(Cl)cc6)CC(C)(C)CC5)CC4)cc3Oc3ccc4[nH]ccc4c3)cc2S(=O)(=O)C(F)(F)F)CC1")
0.192

Value of Ki reported for the compound O=C(NS(=O)(=O)c1ccc(NCCCN2CCOCC2)c(S(=O)(=O)C(F)(F)F)c1)c1ccc(N2CCN(Cc3ccccc3-c3ccc(Cl)cc3)CC2)cc1Oc1cccc2[nH]ccc12 is 4.56

The recorded Ki for CC(c1ccccc1-c1ccc(Cl)cc1)N1CCN(c2ccc(C(=O)NS(=O)(=O)c3ccc(NC4CCN(C)CC4)c([N+](=O)[O-])c3)c(Oc3cccc4[nH]ccc34)c2)CC1 (stereo not shown) is 0.083

Looking up C[C@H](Nc1ccc(S(=O)(=O)NC(=O)c2ccc(N3CCN(CC4=C(c5ccc(Cl)cc5)CC(C)(C)CC4)CC3)cc2Oc2ccc3[nH]ccc3c2)cc1[N+](=O)[O-])c1ccccc1 , I see its Ki listed as 63

// sample CC1(C)CCC(CN2CCN(c3ccc(C(=O)NS(=O)(=O)c4ccc(NC5CCCCC5N)c([N+](=O)[O-])c4)c(Oc4ccc5[nH]ccc5c4)c3)CC2)=C(c2ccc(Cl)cc2)C1 (stereo not shown) , its Ki was 0.589

Form: compound = CN(C)CCCNc1ccc(S(=O)(=O)NC(=O)c2ccc(N3CCN(CC4=C(c5ccc(Cl)cc5)CC(C)(C)CC4)CC3)cc2Oc2ccc3[nH]ccc3c2)cc1C(F)(F)F ; Ki = 2.94
